Data origin: ChEMBL document CHEMBL4304809

The compounds listed here are annotated with their Ki.
target: Mitogen-activated protein kinase kinase kinase 14 (Homo sapiens, UniProt Q99558); assay: Inhibition of NIK (unknown origin) using ATP as substrate by transcreener ADP assay based fluorescence correlation spectroscopic analysis
Sequence (Q99558 whole entry): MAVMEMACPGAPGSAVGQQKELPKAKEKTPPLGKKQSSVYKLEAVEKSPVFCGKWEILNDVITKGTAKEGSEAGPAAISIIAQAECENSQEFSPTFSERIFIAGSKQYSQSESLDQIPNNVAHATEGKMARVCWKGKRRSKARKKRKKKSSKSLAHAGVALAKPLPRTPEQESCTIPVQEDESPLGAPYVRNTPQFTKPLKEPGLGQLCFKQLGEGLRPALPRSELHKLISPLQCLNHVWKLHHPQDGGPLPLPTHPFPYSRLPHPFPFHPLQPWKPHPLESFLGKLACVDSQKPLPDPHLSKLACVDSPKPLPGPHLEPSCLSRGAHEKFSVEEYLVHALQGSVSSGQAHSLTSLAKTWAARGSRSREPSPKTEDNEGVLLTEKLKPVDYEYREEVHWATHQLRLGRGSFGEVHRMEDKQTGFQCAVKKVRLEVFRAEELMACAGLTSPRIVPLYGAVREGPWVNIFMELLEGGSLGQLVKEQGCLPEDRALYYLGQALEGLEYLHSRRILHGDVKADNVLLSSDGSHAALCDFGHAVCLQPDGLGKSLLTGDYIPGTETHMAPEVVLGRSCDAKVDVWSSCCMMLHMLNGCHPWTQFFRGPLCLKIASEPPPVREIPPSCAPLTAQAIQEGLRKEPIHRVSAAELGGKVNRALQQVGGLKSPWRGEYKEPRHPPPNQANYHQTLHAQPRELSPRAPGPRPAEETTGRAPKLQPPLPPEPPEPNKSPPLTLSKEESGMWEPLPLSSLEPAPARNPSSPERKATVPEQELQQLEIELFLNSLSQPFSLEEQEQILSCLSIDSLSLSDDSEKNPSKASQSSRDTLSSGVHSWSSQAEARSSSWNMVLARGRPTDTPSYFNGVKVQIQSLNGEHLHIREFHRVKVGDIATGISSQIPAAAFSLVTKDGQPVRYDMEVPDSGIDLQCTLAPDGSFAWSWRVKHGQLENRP

INSERT INTO measurements (structuresmiles, experimentaltarget, reportedresult) VALUES
  ('Cc1cc([C@@](C)(O)C#Cc2ccc3c(c2)-c2nc(C(N)=O)cn2CCO3)no1', 'Mitogen-activated protein kinase kinase kinase 14 (Homo sapiens, UniProt Q99558)', '> 250 nM');

[ask] Requested field: Ki. Item: Cc1cnc(C(C)(C)C#Cc2ccc3c(c2)-c2nc(C(N)=O)c(C4CC4)n2C2CC3C2)o1
[reply] > 1250 nM

[ask] Sample Cc1cc([C@@](C)(O)C#Cc2ccc3c(c2)-c2nc(C(N)=O)c(C4CC4)n2CCO3)no1 — what was its Ki?
[reply] ≥ 1250 nM

[ask] Recorded Ki for CNC(=O)c1c(C(N)=O)nc2n1C1CC(C1)c1ccc(C#CC(C)(C)c3ncc(C)o3)cc1-2 , please?
[reply] > 1250 nM

[ask] Need Ki, item NC(=O)c1cn2c(n1)-c1cc(C#CC3CCCC3)ccc1C1CC2C1
[reply] > 1250 nM
